assay: Biodistribution experiments in normal mice after i.v. injection
Assay type: in vivo
run-conditions: male, ddY, mouse, in vivo, iv, total radioactivity, Biodistribution of radioactivity, Large-intestine
Where a SMILES comes first, the peptide text is derived from it. [ ]: non-standard residue; d: D form. The star is where a group is joined. DOTA = O=C(O)CN1CCN(CC(=O)O)CCN(CC(=O)*)CCN(CC(=O)O)CC1
readout-type: tissue uptake dose at 1 h (%ID)

>  <compound>
O=C(O)CC[C@H](NC(=O)[C@H](CCC(=O)O)NC(=O)[C@H](CCC(=O)O)NC(=O)[C@H](CCC(=O)O)NC(=O)[C@H](CCC(=O)O)NC(=O)[C@H](CCC(=O)O)NC(=O)[C@H](CCC(=O)O)NC(=O)[C@H](CCC(=O)O)NC(=O)[C@H](CCC(=O)O)NC(=O)[C@H](CCC(=O)O)NC(=O)[C@H](CCC(=O)O)NC(=O)[C@H](CCC(=O)O)NC(=O)[C@H](CCC(=O)O)NC(=O)[C@H](CCC(=O)O)NC(=O)CN1CCN(CC(=O)O)CCN(CC(=O)O)CCN(CC(=O)O)CC1)C(=O)O [^67Ga-DOTA-(L-Glu)14, metal not drawn]

>  <meas-value>
0.07

$$$$
>  <compound>
O=C(O)C[C@@H](NC(=O)[C@@H](CC(=O)O)NC(=O)[C@@H](CC(=O)O)NC(=O)[C@@H](CC(=O)O)NC(=O)[C@@H](CC(=O)O)NC(=O)[C@@H](CC(=O)O)NC(=O)[C@@H](CC(=O)O)NC(=O)[C@@H](CC(=O)O)NC(=O)CN1CCN(CC(=O)O)CCN(CC(=O)O)CCN(CC(=O)O)CC1)C(=O)O [^67Ga-DOTA-(D-Asp)8, metal not drawn] ({DOTA}-[dD][dD][dD][dD][dD][dD][dD][dD]-OH)

>  <meas-value>
0.05

$$$$

* * *

assay: Biodistribution experiments in normal mice after i.v. injection
Format: in vivo
run-conditions: male, ddY, mouse, in vivo, iv, total radioactivity, Biodistribution of radioactivity, Pancreas
Where a SMILES comes first, the peptide text is derived from it. [ ]: non-standard residue; d: D form. The star is where a group is joined. DOTA = O=C(O)CN1CCN(CC(=O)O)CCN(CC(=O)*)CCN(CC(=O)O)CC1
Recorded tissue uptake dose at 1 h for the following molecules

>  <molecule>
O=C(O)C[C@@H](NC(=O)[C@@H](CC(=O)O)NC(=O)CN1CCN(CC(=O)O)CCN(CC(=O)O)CCN(CC(=O)O)CC1)C(=O)O [^67Ga-DOTA-(D-Asp)2, metal not drawn] ({DOTA}-[dD]-[dD]-OH)

>  <tissue uptake dose at 1 h, %ID>
0.15

$$$$
>  <molecule>
O=C(O)C[C@@H](NC(=O)[C@@H](CC(=O)O)NC(=O)[C@@H](CC(=O)O)NC(=O)[C@@H](CC(=O)O)NC(=O)[C@@H](CC(=O)O)NC(=O)[C@@H](CC(=O)O)NC(=O)[C@@H](CC(=O)O)NC(=O)[C@@H](CC(=O)O)NC(=O)CN1CCN(CC(=O)O)CCN(CC(=O)O)CCN(CC(=O)O)CC1)C(=O)O [^67Ga-DOTA-(D-Asp)8, metal not drawn] ({DOTA}-[dD][dD][dD][dD][dD][dD][dD][dD]-OH)

>  <tissue uptake dose at 1 h, %ID>
0.11

$$$$
>  <molecule>
O=C(O)C[C@@H](NC(=O)[C@@H](CC(=O)O)NC(=O)[C@@H](CC(=O)O)NC(=O)[C@@H](CC(=O)O)NC(=O)[C@@H](CC(=O)O)NC(=O)CN1CCN(CC(=O)O)CCN(CC(=O)O)CCN(CC(=O)O)CC1)C(=O)O [^67Ga-DOTA-(D-Asp)5, metal not drawn] ({DOTA}-[dD][dD][dD][dD][dD]-OH)

>  <tissue uptake dose at 1 h, %ID>
0.25

$$$$
